Cited source for all entries: ChEMBL document CHEMBL2034971

Listed here: compounds with reported pIC50 for Histone deacetylase 1 (Homo sapiens).
// returns pIC50 (minus log10 of molar concentration), number only

Task: Would you mind telling me what pIC50 value was observed for Nc1ccccc1NC(=O)CCCNCC(=O)Nc1ccccc1[N+](=O)[O-] ?
Output: 5.51

Task: And for Nc1ccccc1NC(=O)c1ccc(NCC(=O)Nc2ccccc2)cc1 ?
Output: 5.13

Task: And for Cc1ccc(NC(=O)CNCCCC(=O)Nc2ccccc2N)cc1 ?
Output: 5.12

Task: And for Nc1ccccc1NC(=O)c1ccc(NCC(=O)Nc2cc(Cl)ccc2Cl)cc1 ?
Output: 5.07

Task: And for Nc1ccccc1NC(=O)c1ccc(NCC(=O)Nc2cccc([N+](=O)[O-])c2)cc1 ?
Output: 5.85

* * *

Listed here: compounds with reported IC50 for Histone deacetylase 1 (Homo sapiens).
Only the number, expressed in nM, is required.

Task: Record Nc1ccccc1NC(=O)CCCNCC(=O)Nc1ccc([N+](=O)[O-])cc1 : what is its IC50 with Histone deacetylase 1 (Homo sapiens)?
Output: 900

Task: And for Nc1ccccc1NC(=O)CCCNCC(=O)Nc1cccc([N+](=O)[O-])c1 ?
Output: 2300

Task: And for Cc1ccc(NC(=O)CNc2ccc(C(=O)Nc3ccccc3N)cc2)cc1 ?
Output: 4500

Task: And for COc1ccc(NC(=O)CNCCCC(=O)Nc2ccccc2N)cc1 ?
Output: 3600

Task: And for COc1ccc(NC(=O)CNc2ccc(C(=O)Nc3ccccc3N)cc2)cc1 ?
Output: 3100

Task: And for Nc1ccccc1NC(=O)c1ccc(NCC(=O)Nc2ccc([N+](=O)[O-])cc2)cc1 ?
Output: 700

* * *

Can you tell me inhibition in vivo at 200 µmol/kg for the items I'm about to list?
measurement_protocol: Antitumor activity against mouse EAC cells allografted in Swiss albino mouse assessed as decrease in tumor cell at 0.2 mmol/kg, ip administered from day 1 to day 7 every 24 hrs
Format: functional
conditions_used: Ehrlich
Only the number, expressed in %, is required.

Task: Would you mind telling me what inhibition in vivo at 200 µmol/kg value was observed for COc1ccc(NC(=O)CNCCCC(=O)Nc2ccccc2N)cc1 ?
Output: 63.3

Task: And for Nc1ccccc1NC(=O)CCCNCC(=O)Nc1ccc(Cl)cc1 ?
Output: 75

Task: And for Cc1ccc(NC(=O)CNc2ccc(C(=O)Nc3ccccc3N)cc2)cc1 ?
Output: 25.2

Task: And for Nc1ccccc1NC(=O)CCCNCC(=O)Nc1ccccc1Cl ?
Output: 12.7

Task: And for COc1ccc(NC(=O)CNc2ccc(C(=O)Nc3ccccc3N)cc2)cc1 ?
Output: 62.3

Task: And for Nc1ccccc1NC(=O)c1ccc(NCC(=O)Nc2ccc([N+](=O)[O-])cc2)cc1 ?
Output: 77.5

Task: And for Nc1ccccc1NC(=O)c1ccc(NCC(=O)Nc2cccc(Cl)c2)cc1 ?
Output: 51.7

Task: And for Nc1ccccc1NC(=O)c1ccc(NCC(=O)Nc2ccccc2)cc1 ?
Output: 30.5

Task: And for Nc1ccccc1NC(=O)CCCNCC(=O)Nc1ccccc1 ?
Output: 19.1

Task: And for Nc1ccccc1NC(=O)c1ccc(NCC(=O)Nc2ccc(Br)cc2)cc1 ?
Output: 73.5

Task: And for Nc1ccccc1NC(=O)c1ccc(NCC(=O)Nc2cc(Cl)ccc2Cl)cc1 ?
Output: 56.2

* * *

Listed here: compounds with reported pIC50 for Histone deacetylase 1 (Homo sapiens, UniProt Q13547).
// returns pIC50 (minus log10 of molar concentration), number only

Task: Would you mind telling me what pIC50 value was observed for Nc1ccccc1NC(=O)CCCNCC(=O)Nc1ccccc1Cl ?
Output: 5.54

Task: And for Nc1ccccc1NC(=O)CCCNCC(=O)Nc1ccc(Br)cc1 ?
Output: 5.77

Task: And for Nc1ccccc1NC(=O)c1ccc(NCC(=O)Nc2ccc(Br)cc2)cc1 ?
Output: 5.80

Task: And for Nc1ccccc1NC(=O)CCCNCC(=O)Nc1cccc(Cl)c1 ?
Output: 5.74

Task: And for Nc1ccccc1NC(=O)c1ccc(NCC(=O)Nc2ccccc2[N+](=O)[O-])cc1 ?
Output: 5.70

Task: And for Nc1ccccc1NC(=O)CCCNCC(=O)Nc1ccc(Cl)cc1 ?
Output: 5.85

Task: And for Nc1ccccc1NC(=O)c1ccc(NCC(=O)Nc2ccccc2Cl)cc1 ?
Output: 5.54
